FYI, the data here is from patent US20080194524A1.

Target: hPin1 (Protein interacting with NIMA (-kinase)) (Homo sapiens)
Sequence (Q13526 whole entry): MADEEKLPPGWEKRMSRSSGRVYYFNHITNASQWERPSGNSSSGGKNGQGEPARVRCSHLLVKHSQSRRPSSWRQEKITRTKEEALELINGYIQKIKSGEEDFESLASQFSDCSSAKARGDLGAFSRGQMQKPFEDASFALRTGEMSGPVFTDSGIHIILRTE
Assay: protease-coupled PPIase assay, hPin1
Assay type: biochemical
Details: hPin1 6 nM; substrate Ac-Ala-Ala-Ser(PO3H2)-Pro-Arg-pNA, trypsin; 35 mM HEPES pH 7.8, 6° C.; read-out: Specificity of the inhibition with rotamases, Target T-1 (IC50 class)
pIC50: −log10 of the molar value.

molecular.string	pIC50
NC(=O)[C@H](Cc1ccc2ccccc2c1)NC(=O)[C@@H]1CCCCN1C(=O)[C@H](CSCP(=O)(O)O)NC(=O)CCCCc1ccccc1	> 6.00
NC(=O)[C@H](Cc1ccc2ccccc2c1)NC(=O)[C@@H]1CCCCN1C(=O)[C@H](COCP(=O)(O)O)NC(=O)OCC1c2ccccc2-c2ccccc21	5.00 to 6.00
NC(=O)[C@H](Cc1ccc2ccccc2c1)NC(=O)[C@@H]1CCCCN1C(=O)[C@H](CSCP(=O)(O)O)NC(=O)c1cccc(Oc2ccccc2)c1	> 6.00
